Hey, just so you know, these numbers are from ChEMBL document CHEMBL3507680.

Test: Human HepG2 cell viability assay in 384 well format
Format: toxicity, cell-based
Set-up: dose 125 nL, time 70.5 hour; concentration not given beside the values
Conditions: HepG2 cells, read-out: Inhibition
parameter.measured: cytotoxicity at 70.5 h (%)
Please respond with the number in % and leave the unit unwritten.

Worked set:
>  <molecule>
N#Cc1ccc(CN2CCCCC2Cn2cncn2)cc1 (centres undefined)

>  <cytotoxicity at 70.5 h / %>
11.7

$$$$
>  <molecule>
COC(=O)CCNC(=O)c1cc(Br)c2c(c1)OCCO2

>  <cytotoxicity at 70.5 h / %>
-10.5

$$$$
>  <molecule>
Cn1ncc2c(NCC3CCCN3c3cccnn3)ncnc21 (centres undefined)

>  <cytotoxicity at 70.5 h / %>
-3.62

$$$$
>  <molecule>
CCCC(C)NC1CCN(c2ccc(-n3ccnc3C)cc2)CC1 (centres undefined)

>  <cytotoxicity at 70.5 h / %>
-2.41

$$$$
>  <molecule>
Cc1cc(-c2cc(N)c(=O)n(CC(=O)NC3CCCC3)n2)c(C)o1

>  <cytotoxicity at 70.5 h / %>
-1.96

$$$$
>  <molecule>
O=C(Cc1ccsc1)N1CCOC(c2nc(-c3ncccn3)no2)C1 (centres undefined)

>  <cytotoxicity at 70.5 h / %>
-2.86

$$$$
>  <molecule>
Cc1nccn1CCC1CCCCN1Cc1ccc2c(c1)OCCO2 (centres undefined)

>  <cytotoxicity at 70.5 h / %>
14.5

$$$$
>  <molecule>
Cc1nc(N)sc1C(=O)N1CCC(C(O)Cc2ccccc2)CC1 (centres undefined)

>  <cytotoxicity at 70.5 h / %>
-7.21

$$$$
>  <molecule>
O=C(NCC1CCCOC1)c1ccc(-c2ccccc2)[nH]c1=O (centres undefined)

>  <cytotoxicity at 70.5 h / %>
0.0722

$$$$
>  <molecule>
CN(Cc1ccc(O)cc1)C(=O)NC1CCCN(c2ncccn2)C1 (centres undefined)

>  <cytotoxicity at 70.5 h / %>
-3.14

$$$$

Lab book: cytotoxicity at 70.5 h of CCCS(=O)(=O)N1Cc2ccnn2CC(c2nc(C)no2)C1 (centres undefined) noted as -4.93

Per the records, this molecule ( `Cc1ccc(NC2(C(=O)N3CCn4cncc4C3)CCCCC2)cc1C` ) has cytotoxicity at 70.5 h equal to -12.1

Record summary for CS(=O)(=O)NCCC1CN(Cc2ccccc2F)CCO1 (centres undefined) : reported cytotoxicity at 70.5 h = 0.792

What the record says about Cn1ncc2c(=O)[nH]c(N3CCCC3c3cccs3)nc21 (centres undefined) : cytotoxicity at 70.5 h is 17.2

Quick note, cytotoxicity at 70.5 h for CC(CCN1CCC(n2cc(CCO)nn2)CC1)c1ccccc1 (centres undefined) landed at -8.84

// `CC(C)CCNC(=O)CCc1ccnc2ccccc12` : cytotoxicity at 70.5 h value = -14.4

Summary for this molecule, C1CCCN(CC2CCCN(Cc3noc(C4CC4)n3)C2)CC1 (centres undefined) : cytotoxicity at 70.5 h is 0.15

Kindly note the recorded cytotoxicity at 70.5 h for `CO[C@H]1CCN(C2CCOCC2)C[C@@H]1Cc1ccccc1` , which is -7.39

Documented cytotoxicity at 70.5 h of `COc1ccc(N(C)C(=O)c2cccc(S(C)(=O)=O)c2)cn1` : -3.33

// recorded cytotoxicity at 70.5 h for `O=C(NCCNc1cc(N2CCCC2)cnn1)Nc1ccccc1F` : -2.71

So for Cc1cnn(CC(C)NCc2csc(-c3ncccn3)n2)c1 (centres undefined) , the logged cytotoxicity at 70.5 h turned out to be -2.17

// cytotoxicity at 70.5 h value for `COc1ccc(CCNC(=O)N2CCN(C)[C@@H]3CS(=O)(=O)C[C@@H]32)cc1` : -3.24

For record NC(=O)COc1cccc(C(=O)N2CCCC(n3cccn3)C2)c1 (centres undefined) the listed cytotoxicity at 70.5 h is 28.9

cytotoxicity at 70.5 h for `O=C(O)CCN(Cc1ccc(F)c(F)c1)C(=O)C1CC1` is -11.3
